Just for reference, patent US11713318B2 is where these values come from.

# protocol.details: Cytotoxicity, MTT assay
# Format: cell-based
# experimental.parameters: human, Hep G2 (ATCC HB-8065) cells; Hep G2; at concentrations efficacious against bacterial species (0.25-4 μg/mL); read-out: cell viability
# Procedure: Before removing the frozen cell stocks from liquid nitrogen, culture medium was pre-warmed to 37° C. […] • 1. […] The number of cells in the cell suspension was determined using an auto-cell counter: 10 μL of the cell suspension was mixed with 10 μL 1× trypan blue (filtered with 0.2 μm PES filter) and the mixture was loaded onto a cell counting slide. […] Data processing: The average of background Abg was calculated from the blank column. […]
outcome.measure: viability at 24 h

Dear colleague, I am looking for the recorded viability at 24 h of the following compound: "CCCCCC[N+](C)(C)CCCOc1cc(/C=C/c2ccc(/C=C/c3cc(OCCC[N+](C)(C)CCCCCC)cc(OCCC[N+](C)(C)CCCCCC)c3)cc2)cc(OCCC[N+](C)(C)CCCCCC)c1"
~90%

* * *

# Test system: HRPTEpiC
# protocol.details: Cytotoxicity tested by Eurofins Pharma Discovery Services
# Format: cell-based
# experimental.parameters: data provided by Eurofins, read-out: IC50
# maps each entry to its IC50
Record the value in µg/mL, omitting the unit from your answer.

| chemical.string | numeric.readout |
| --- | --- |
| C[N+](C)(C)CCCCCCOc1cc(/C=C/c2ccc(/C=C/c3ccc(/C=C/c4cc(OCCCCCC[N+](C)(C)C)cc(OCCCCCC[N+](C)(C)C)c4)cc3)cc2)cc(OCCCCCC[N+](C)(C)C)c1 | 6.3 |
| CCCCCC[N+](C)(C)CCCCOc1cc(/C=C/c2ccc(/C=C/c3cc(OCCCC[N+](C)(C)CCCCCC)cc(OCCCC[N+](C)(C)CCCCCC)c3)cc2)cc(OCCCC[N+](C)(C)CCCCCC)c1.[I-].[I-].[I-].[I-] | 2.8 |

Dear colleague, I am looking for the recorded IC50 of the following compound: "C[N+](C)(C)CCCCOc1cc(/C=C/c2ccc(/C=C/c3cc(OCCCC[N+](C)(C)C)cc(OCCCC[N+](C)(C)C)c3)cc2)cc(OCCCC[N+](C)(C)C)c1.[I-].[I-].[I-].[I-]"
79.2

Dear colleague, I am looking for the recorded IC50 of the following compound: "CCCCCC[N+](C)(C)CCCCCCOc1cc(/C=C/c2cc(OCCCCCC[N+](C)(C)CCCCCC)cc(OCCCCCC[N+](C)(C)CCCCCC)c2)cc(OCCCCCC[N+](C)(C)CCCCCC)c1"
2.6

* * *

# protocol.details: Cytotoxicity, MTT assay
# Type: cell-based
# experimental.parameters: mouse, J774 (ATCC TIB-67) cells, at the concentration given as IC50 bound, read-out: cell viability at the highest or lowest test concentration
outcome.measure: viability at 24 h (%)
Record the value in %, omitting the unit from your answer.

| compound | viability at 24 h (%) |
| --- | --- |
| CO/N=C(\C(=O)N[C@@H]1C(=O)N2C(C(=O)[O-])=C(C[n+]3cccc4c3CCC4)CS[C@H]12)c1csc(N)n1 [Cefpirome, reference compound] | 107 |

Dear colleague, I am looking for the recorded viability at 24 h of the following compound: "C[N+](C)(C)CCCCOc1cc(/C=C/c2ccc(/C=C/c3cc(OCCCC[N+](C)(C)C)cc(OCCCC[N+](C)(C)C)c3)cc2)cc(OCCCC[N+](C)(C)C)c1.[I-].[I-].[I-].[I-]"
51
